What shrunken log2 fold change was measured for each of the following?
test system: Escherichia coli TOP10; assay: shrunken log2 fold change of peptide-encoding DNA abundance (4.5 h post-induction vs induction); higher = less antimicrobial activity (less host growth inhibition); conditions: time post-induction: 4.5 h; library: site-saturation at positions 5, 18, 19, 20;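 further: peptides expressed intracellularly from a pBAD plasmid library in pooled LB shake-flask culture, induced with 0.3% L-arabinose, DNA abundance read by NGS, three biological replicates, DESeq2 with apeglm shrinkage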
One number for each entry.

Field: example entries. Status: answers known.
RRIRERPPRLPRPRPRPRTHPRP; -0.574
RRIRWRPPRLPRPRPRPFDGPRP; -0.0363
RRIRRRPPRLPRPRPRPNIMPRP; -0.359
RRIRLRPPRLPRPRPRPRYPPRP; 0.318
RRIRNRPPRLPRPRPRPVDTPRP; 0.033

Read the entry RRIRWRPPRLPRPRPRPVEEPRP and write its reported shrunken log2 fold change.
0.0996
